Protein target, amino acids: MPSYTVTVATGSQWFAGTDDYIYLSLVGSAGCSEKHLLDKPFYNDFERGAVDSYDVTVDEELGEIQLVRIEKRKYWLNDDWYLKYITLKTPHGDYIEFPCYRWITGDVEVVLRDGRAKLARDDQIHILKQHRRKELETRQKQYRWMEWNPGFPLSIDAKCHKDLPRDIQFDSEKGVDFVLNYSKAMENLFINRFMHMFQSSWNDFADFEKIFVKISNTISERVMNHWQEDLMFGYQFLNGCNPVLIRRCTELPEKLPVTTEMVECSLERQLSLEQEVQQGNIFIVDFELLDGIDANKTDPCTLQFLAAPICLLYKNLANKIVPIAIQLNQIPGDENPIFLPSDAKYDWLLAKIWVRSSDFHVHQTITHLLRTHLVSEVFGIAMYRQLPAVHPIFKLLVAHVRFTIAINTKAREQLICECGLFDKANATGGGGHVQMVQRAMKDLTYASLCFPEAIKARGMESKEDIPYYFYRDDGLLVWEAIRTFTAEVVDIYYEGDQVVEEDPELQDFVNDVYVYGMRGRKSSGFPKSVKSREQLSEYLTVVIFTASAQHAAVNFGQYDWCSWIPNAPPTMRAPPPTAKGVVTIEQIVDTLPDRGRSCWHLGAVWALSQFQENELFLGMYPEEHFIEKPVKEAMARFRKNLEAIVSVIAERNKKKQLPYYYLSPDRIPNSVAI
EXPERIMENTAL READOUT: pIC50
Answers are plain numbers, as −log10 of the molar value.

Here is how some compounds turned out for pIC50.
CCN1C(=O)/C(=N\c2[nH]nc(Nc3ccccc3)c2C(=O)Nc2ccc(C)cc2)c2ccccc21 [12f]; 4.36
Cc1ccc(NC(=O)c2c(Nc3ccccc3)n[nH]c2N=C2C(=O)N(C)c3ccccc32)cc1 [12b]; 4.34
CN1C(=O)C(=Nc2[nH]nc(Nc3ccccc3)c2C(=O)Nc2ccccc2)c2ccccc21 [12a]; 4.30
Cc1ccc(NC(=O)c2c(Nc3ccccc3)n[nH]c2N=Cc2c[nH]c3ccccc23)cc1 [14b]; 4.76
COc1ccc(Nc2n[nH]c(N=Cc3c[nH]c4ccccc34)c2C(=O)Nc2ccc(C)cc2)cc1 [14d]; 4.57
O=C(Nc1ccccc1)c1c(Nc2ccccc2)n[nH]c1N=Cc1c[nH]c2ccccc12 [14a]; 4.66
CCN1C(=O)C(=Nc2[nH]nc(Nc3ccc(OC)cc3)c2C(=O)Nc2ccc(C)cc2)c2ccccc21 [12h]; 4.41
COc1ccc(Nc2n[nH]c(N=C3C(=O)N(C)c4ccccc43)c2C(=O)Nc2ccccc2)cc1 [12c]; 4.39

// for each compound in input: emit pIC50
1. COc1ccc(Nc2n[nH]c(N=Cc3c[nH]c4ccccc34)c2C(=O)Nc2ccccc2)cc1 [14c]
2. CCN1C(=O)C(=Nc2[nH]nc(Nc3ccccc3)c2C(=O)Nc2ccccc2)c2ccccc21 [12e]
3. COc1ccc(Nc2n[nH]c(N=C3C(=O)N(C)c4ccccc43)c2C(=O)Nc2ccc(C)cc2)cc1 [12d]

4.56
4.32
4.40

Dear colleague, I am looking for the recorded pIC50 of the following compound: CCN1C(=O)C(=Nc2[nH]nc(Nc3ccc(OC)cc3)c2C(=O)Nc2ccccc2)c2ccccc21 [12g]
4.41
